Test system: Immortalised Mouse Dermal Fibroblasts (MDFs)
Assay: Cellular assay: inhibition of TSI induced necroptosis, CellTitre-Glo viability
Details: Mus musculus, Fibroblast; MDF, 3 hours TSI cocktail, Table 27; read-out: Inhibition of TSI-induced necroptosis (IC50 cell-based assay) in MDF
Procedure: Cellular Assay: Screening Compounds for Inhibition of TSI Induced Necroptosis in, 384 Well Plate Format. […] The cellular assay was carried out according to the following steps: • 1. […] Read luminescence readout on a plate reader. Percent viability was calculated for each compound according to equation (2): [formula] • Wherein RawData is the readout of any cell containing a compound of the invention. […]
Below is a list of entries, each paired with its recorded IC50 value.

Molecule: Cc1ncsc1-c1ccc(CNC(=O)[C@@H]2C[C@@H](O)CN2C(=O)[C@@H](NC(=O)COCCOCCn2cc(-c3cnc(N)c4c(-c5ccc(NS(=O)(=O)C(F)F)c(O[C@@H](C)c6ccc(F)cc6)c5)nn(C)c34)cn2)C(C)(C)C)cc1 [Compound 1006]
IC50: 1 to 10 µM

Let us examine a further case.
Problem: If you can, please state the reported IC50 value of Cc1ncsc1-c1ccc(CNC(=O)[C@@H]2C[C@@H](O)CN2C(=O)[C@@H](NC(=O)CCN2CCCC(n3cc(-c4cnc(N)c5c(-c6ccc(NS(=O)(=O)C(F)F)c(O[C@@H](C)c7ccc(F)cc7)c6)nn(C)c45)cn3)C2)C(C)(C)C)cc1 (some centres unmarked) [Compound 1014] .
Solution: 1 to 10 µM

====

biological target: endogenous MLKL in U937 (Homo sapiens (Human), UniProt Q8NB16); experiment: Degradation assay: endogenous MLKL in U937 (western blot); conditions: U937, 24 h incubation, read-out: Degradation of endogenous MLKL in U937 (DC50 cell-based assay)
Below is a list of entries, each paired with its recorded DC50 value.

Compound: Cc1ncsc1-c1ccc(CNC(=O)[C@@H]2C[C@@H](O)CN2C(=O)[C@@H](NC(=O)CCCCCCC#Cc2cnc(N)c3c(-c4ccc(NS(=O)(=O)C(F)F)c(F)c4)nn(C)c23)C(C)(C)C)cc1
DC50: 1 to 10 µM
--
Compound: C[C@H](Oc1cc(-c2nn(C)c3c(-c4cnn(C5CCC(C(=O)N6CCC(c7cccc8c7C(=O)N(C7CCC(=O)NC7=O)C8=O)CC6)CC5)c4)cnc(N)c23)ccc1NS(=O)(=O)C(F)F)c1ccc(F)cc1 (stereo partly shown)
DC50: < 1 µM
--
Compound: Cc1ncsc1-c1ccc(CNC(=O)[C@@H]2C[C@@H](O)CN2C(=O)[C@@H](NC(=O)COCCOCCOCCn2cc(-c3cnc(N)c4c(-c5ccc(NS(=O)(=O)C(F)F)c(O[C@@H](C)c6ccc(F)cc6)c5)nn(C)c34)cn2)C(C)(C)C)cc1
DC50: 1 to 10 µM

Let us examine a further case.
Problem: # returns recorded DC50 (system: endogenous MLKL in U937 (Homo sapiens (Human), UniProt Q8NB16)) for C[C@H](Oc1cc(-c2nn(C)c3c(-c4cnn(C5CCN(CCc6ccc7c(c6)C(=O)N(C6CCC(=O)NC6=O)C7=O)CC5)c4)cnc(N)c23)ccc1NS(=O)(=O)C(F)F)c1ccc(F)cc1 (stereo partly shown)
Solution: < 1 µM

====

The molecules below have reported pKd for mouse MLKL (full length) (Mus musculus (Mouse), UniProt Q9D2Y4).
pKd: −log10 of the molar value.

Substance smiles: C[C@H](Oc1cc(-c2coc3c(-c4cnn(C)c4)cnc(N)c23)ccc1NS(=O)(=O)C(F)F)c1ccc(F)cc1
Result: > 9.00

Let us examine a further case.
Problem: # returns recorded pKd (system: mouse MLKL (full length) (Mus musculus (Mouse), UniProt Q9D2Y4)) for `C[C@H](Oc1cc(-c2nn(C)c3c(-c4cnn(C5CCOCC5)c4)cnc(N)c23)ccc1NS(=O)(=O)C(F)F)c1ccc(F)cc1`
Sequence (Q9D2Y4 whole entry): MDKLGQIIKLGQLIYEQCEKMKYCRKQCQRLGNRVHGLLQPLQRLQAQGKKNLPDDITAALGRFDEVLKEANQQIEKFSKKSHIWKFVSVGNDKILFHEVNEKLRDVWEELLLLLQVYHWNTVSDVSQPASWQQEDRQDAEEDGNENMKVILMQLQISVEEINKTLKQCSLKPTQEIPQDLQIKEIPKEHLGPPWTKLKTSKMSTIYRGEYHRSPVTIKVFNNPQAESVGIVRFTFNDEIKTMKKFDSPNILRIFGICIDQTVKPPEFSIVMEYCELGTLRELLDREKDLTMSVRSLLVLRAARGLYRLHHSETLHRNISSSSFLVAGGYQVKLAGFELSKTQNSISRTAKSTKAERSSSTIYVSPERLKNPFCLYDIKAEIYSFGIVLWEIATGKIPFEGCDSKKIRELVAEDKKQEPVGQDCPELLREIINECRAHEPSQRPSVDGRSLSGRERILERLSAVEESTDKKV
Solution: > 9.00

====

Test system: Immortalised Mouse Dermal Fibroblasts (MDFs)
Assay: Cellular assay: inhibition of TSI induced necroptosis, CellTitre-Glo viability
Details: Mus musculus, Fibroblast; MDF, 3 hours TSI cocktail, Table 27; read-out: Inhibition of TSI-induced necroptosis (IC50 cell-based assay) in MDF
Procedure: Cellular Assay: Screening Compounds for Inhibition of TSI Induced Necroptosis in, 384 Well Plate Format. […] The cellular assay was carried out according to the following steps: • 1. […] Read luminescence readout on a plate reader. Percent viability was calculated for each compound according to equation (2): [formula] • Wherein RawData is the readout of any cell containing a compound of the invention. […]
Below is a list of entries, each paired with its recorded IC50 value.

// known answers, use as guide
Compound: Cc1ncsc1-c1ccc(CNC(=O)[C@@H]2C[C@@H](O)CN2C(=O)[C@@H](NC(=O)C2(F)CC2)C(C)(C)C)c(OCCCCCn2cc(-c3cnc(N)c4c(-c5ccc(NS(=O)(=O)C(F)F)c(O[C@@H](C)c6ccc(F)cc6)c5)nn(C)c34)cn2)c1
Result: 1 to 10 µM
//
Compound: C[C@H](Oc1cc(-c2nn(C)c3c(-c4cnn(C5CCN(C(=O)[C@H]6C[C@H]6C6CCN(c7cccc8c7C(=O)N(C7CCC(=O)NC7=O)C8=O)CC6)CC5)c4)cnc(N)c23)ccc1NS(=O)(=O)C(F)F)c1ccc(F)cc1 (stereo in doubt)
Result: < 1 µM

Let us examine a further case.
Problem: If you can, please state the reported IC50 value of C[C@H](Oc1cc(-c2nn(C)c3c(-c4cnn(C5CCN(CCc6ccc7c(c6)C(=O)N(C6CCC(=O)NC6=O)C7=O)CC5)c4)cnc(N)c23)ccc1NS(=O)(=O)C(F)F)c1ccc(F)cc1 (stereo partly drawn) .
Solution: < 1 µM

====

molecular target: endogenous MLKL in MDF (Mus musculus (Mouse)); assay: Degradation assay: endogenous MLKL in MDF (western blot); details: MDF cells, 24 h incubation with compound, MLKL adjusted for loading with GAPDH, normalized to DMSO only control, read-out: Degradation of endogenous MLKL in MDF (DC50 cell-based assay)
Sequence (Q9D2Y4 whole entry): as the sequence (Q9D2Y4 whole entry) above
Endpoint name: DC50

Problem: If you can, please state the reported DC50 value of Cc1ncsc1-c1ccc(CNC(=O)[C@@H]2C[C@@H](O)CN2C(=O)[C@@H](NC(=O)C2(F)CC2)C(C)(C)C)c(OCCCCCCCCn2cc(-c3cnc(N)c4c(-c5ccc(NS(=O)(=O)C(F)F)c(O[C@@H](C)c6ccc(F)cc6)c5)nn(C)c34)cn2)c1 [Compound 1045] .
Solution: < 1000 nM

Problem: If you can, please state the reported DC50 value of Cn1nc(-c2ccc(NS(=O)(=O)C(F)F)c(F)c2)c2c(N)ncc(-c3cnn(C4CCN(C(=O)[C@H]5C[C@H](Nc6cccc7c6C(=O)N(C6CCC(=O)NC6=O)C7=O)C5)CC4)c3)c21 (stereo partly drawn) [Compound 1114] .
Solution: < 1000 nM

Problem: If you can, please state the reported DC50 value of Cn1nc(-c2ccc(NS(=O)(=O)C(F)F)c(F)c2)c2c(N)ncc(-c3cnn(CCCCCCCOc4cccc5c4C(=O)N(C4CCC(=O)NC4=O)C5=O)c3)c21 (stereo not drawn) [Compound 1060] .
Solution: 1000 to 10000 nM

====

biological target: human MLKL (full length) (Homo sapiens (Human), UniProt Q8NB16); assay: KINOMEscan binding assay, human MLKL (full length); conditions: hMLKL, Table 25; read-out: MLKL (KD)
Sequence (Q8NB16 whole entry): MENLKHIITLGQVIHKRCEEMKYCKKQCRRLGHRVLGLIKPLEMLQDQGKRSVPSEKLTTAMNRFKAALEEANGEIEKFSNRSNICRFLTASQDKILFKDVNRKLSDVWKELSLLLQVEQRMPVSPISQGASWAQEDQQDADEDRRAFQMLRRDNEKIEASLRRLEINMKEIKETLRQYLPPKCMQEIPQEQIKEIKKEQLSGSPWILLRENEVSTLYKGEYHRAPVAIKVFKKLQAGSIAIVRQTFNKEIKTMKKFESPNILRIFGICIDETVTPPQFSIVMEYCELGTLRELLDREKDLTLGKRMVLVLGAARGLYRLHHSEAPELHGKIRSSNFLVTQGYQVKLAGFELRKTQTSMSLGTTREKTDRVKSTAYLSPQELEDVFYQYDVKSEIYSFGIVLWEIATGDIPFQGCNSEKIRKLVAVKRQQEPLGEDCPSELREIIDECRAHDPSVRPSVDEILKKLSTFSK
Endpoint name: Kd

// known answers, use as guide
Compound: Cc1ncsc1-c1ccc(CNC(=O)[C@@H]2C[C@@H](O)CN2C(=O)[C@@H](NC(=O)CCCCOC(=O)c2ccc(-c3cnc(N)c4c(-c5ccc(NS(=O)(=O)C(F)F)c(O[C@@H](C)c6ccc(F)cc6)c5)nn(C)c34)cc2)C(C)(C)C)cc1
Kd: 10 to 1000 nM
--
Compound: Cn1nc(-c2ccc(NS(=O)(=O)C(F)F)c(F)c2)c2c(N)ncc(-c3cnn(CCCCCCCOc4cccc5c4C(=O)N(C4CCC(=O)NC4=O)C5=O)c3)c21 (centres unmarked)
Kd: < 10 nM
--
Compound: C[C@H](Oc1cc(-c2nn(C)c3c(-c4cnn(C5CCN(C(=O)C6CC7(C6)CN(c6cccc8c6C(=O)N(C6CCC(=O)NC6=O)C8=O)C7)CC5)c4)cnc(N)c23)ccc1NS(=O)(=O)C(F)F)c1ccc(F)cc1 (some centres unmarked)
Kd: 10 to 1000 nM

Problem: If you can, please state the reported Kd value of C[C@H](Oc1cc(-c2nn(C)c3c(-c4cnn(C5CCN(C(=O)c6ccc(C(=O)NC7CCC(=O)NC7=O)cc6)CC5)c4)cnc(N)c23)ccc1NS(=O)(=O)C(F)F)c1ccc(F)cc1 (some centres unmarked) .
Solution: < 10 nM

Problem: If you can, please state the reported Kd value of C[C@H](Oc1cc(-c2nn(C)c3c(-c4cnn(C5CCN(C(=O)COc6ccc7c(c6)C(=O)N(C6CCC(=O)NC6=O)C7=O)CC5)c4)cnc(N)c23)ccc1NS(=O)(=O)C(F)F)c1ccc(F)cc1 (some centres unmarked) .
Solution: < 10 nM

Problem: If you can, please state the reported Kd value of C[C@H](Oc1cc(-c2nn(C)c3c(-c4cnn(C5CCN(C(=O)[C@H]6C[C@H](N(C)c7ccc8c(c7)C(=O)N(C7CCC(=O)NC7=O)C8=O)C6)CC5)c4)cnc(N)c23)ccc1NS(=O)(=O)C(F)F)c1ccc(F)cc1 (some centres unmarked) .
Solution: < 10 nM

Problem: If you can, please state the reported Kd value of C[C@H](Oc1cc(-c2nn(C)c3c(-c4cnn(C5CCN(C(=O)[C@]6(F)C[C@H](Nc7cccc8c7C(=O)N(C7CCC(=O)NC7=O)C8=O)C6)CC5)c4)cnc(N)c23)ccc1NS(=O)(=O)C(F)F)c1ccc(F)cc1 (some centres unmarked) .
Solution: < 10 nM

Problem: If you can, please state the reported Kd value of `Cc1ncsc1-c1ccc(CNC(=O)[C@@H]2C[C@@H](O)CN2C(=O)[C@@H](NC(=O)C2(F)CC2)C(C)(C)C)c(OCCCCCCCCn2cc(-c3cnc(N)c4c(-c5ccc(NS(=O)(=O)C(F)F)c(O[C@@H](C)c6ccc(F)cc6)c5)nn(C)c34)cn2)c1` .
Solution: 10 to 1000 nM
